Tested on: A549
Test: NCI tumour cell line growth inhibition, 48 h
The source made the active and inactive calls. Rule as the data show it: active = GI50 up to about 1.1 µM and inactive = higher.
Reported GI50 values for the following compounds.

[
  {
    "Compound": "O=C(O)CCC1COc2ccccc2O1 (stereo not given)",
    "Measured metric": "GI50",
    "Endpoint result": "> 10 µM (inactive)"
  },
  {
    "Compound": "N=CCCN(CCC=N)c1ccc(/C=C2\\CN(NC(=O)c3ccc(Cl)cc3)C(c3ccccc3)=N2)cc1",
    "Measured metric": "GI50",
    "Endpoint result": "> 100 µM (inactive)"
  },
  {
    "Compound": "N#C[BH2-][n+]1ccc(C(=O)NNCc2ccccc2)cc1",
    "Measured metric": "GI50",
    "Endpoint result": "> 100 µM (inactive)"
  },
  {
    "Compound": "O=C1CCc2cc3c(cc21)CC1(Cc2ccccc2C1)C3",
    "Measured metric": "GI50",
    "Endpoint result": "12 µM (inactive)"
  },
  {
    "Compound": "O=C1/C(=C\\c2ccccc2)CN(C(=O)CCN2CCCCC2)C/C1=C/c1ccccc1",
    "Measured metric": "GI50",
    "Endpoint result": "3.73 µM (inactive)"
  }
]

Just so you know, measured GI50 for Cn1c2c(c3ccccc31)CCN1C(=O)C34CCCC3CC21S4 (stereo not given) came out at > 100 µM (inactive)

Just so you know, measured GI50 for `O=C(N=C1N(c2ccccc2)C(=O)C(=O)N1c1ccccc1)c1ccccc1` came out at 5.48 µM (inactive)

Just so you know, measured GI50 for `Cc1ccc2c(c1)[nH]c(=S)n2/C=C1\C(=O)Oc2ccccc2C1=O` came out at 77.4 µM (inactive)
